biological target: T1, CNA construct CNA11, two-hybrid prey (Mus musculus (Mouse), UniProt P48453 384-495); assay: yeast two-hybrid assay (FIG. 14)
T1 construct: not shown: HA-pJG4-5 prey fusion moiety
measured endpoint: binding result

1. R5G42 mutant C7 (LexA fusion, two-hybrid bait) (designed binder, One amino acid change against R5G42; also called R5G42-C7; not shown: LexA fusion partner (pGILDA bait)) MVKQIESKTAFQEALDAAGDKPVVVDFSATWCGPSAVTFAVCALGPCKMIKPFFHSLSEKYSNVIFLEVDVDDCQDVASECEVKCMPTFQFFKKGQKVGEFSGANKEKLEATINELV	binds
2. LexA-R5G42 fusion protein (peptide aptamer R5G42 as two-hybrid bait) (designed binder, not shown: large carriers, also called LexA-R5G42 bait protein) MVKQIESKTAFQEALDAAGDKLVVVDFSATWCGPSAVTFAVCALGPCKMIKPFFHSLSEKYSNVIFLEVDVDDCQDVASECEVKCMPTFQFFKKGQKVGEFSGANKEKLEATINELV	binds
3. R5G42 mutant C8 (LexA fusion, two-hybrid bait) (designed binder, One amino acid change against R5G42; also called R5G42-C8; not shown: LexA fusion partner (pGILDA bait)) MVKQIESKTAFQEALDAAGDKLVVVDFSATWCGPSAVTIAVCALGPCKMIKPFFHSLSEKYSNVIFLEVDVDDCQDVASECEVKCMPTFQFFKKGQKVGEFSGANKEKLEATINELV	binds
